# ASSAYED_SYSTEM: Recombinant Human FGFR2 alpha (IIIc) Fc Chimera Protein (Homo sapiens)
# Construct: Fc (chimera); purchased R&D systems 712-FR-050
# Sequence (P21802 with tags, fused parts or gaps limits assumed): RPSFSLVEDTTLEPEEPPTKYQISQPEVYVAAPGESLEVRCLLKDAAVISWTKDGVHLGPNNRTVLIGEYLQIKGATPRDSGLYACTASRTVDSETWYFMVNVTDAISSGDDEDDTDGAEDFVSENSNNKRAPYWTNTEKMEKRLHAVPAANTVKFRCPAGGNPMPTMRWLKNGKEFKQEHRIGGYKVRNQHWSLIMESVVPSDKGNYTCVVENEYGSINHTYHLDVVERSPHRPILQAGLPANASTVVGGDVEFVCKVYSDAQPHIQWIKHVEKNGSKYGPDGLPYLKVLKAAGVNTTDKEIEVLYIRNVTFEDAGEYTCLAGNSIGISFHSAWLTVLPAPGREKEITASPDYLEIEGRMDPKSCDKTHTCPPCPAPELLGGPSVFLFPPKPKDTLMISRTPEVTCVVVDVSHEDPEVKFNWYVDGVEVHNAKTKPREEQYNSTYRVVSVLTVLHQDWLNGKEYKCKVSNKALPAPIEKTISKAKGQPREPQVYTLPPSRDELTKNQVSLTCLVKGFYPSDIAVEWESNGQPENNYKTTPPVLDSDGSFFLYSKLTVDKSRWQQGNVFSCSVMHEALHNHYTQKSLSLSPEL
# ASSAY_METHOD_TEXT: ELISA binding affinity of enzymatically synthesized peptide to FGFR
# RUN_PARAMETERS: ELISA luminescence signal at 10 nmol/L peptide, SEQ ID NO: 47 at 10 nmol/L standardized to 1; enzyme synthesis product
Bridge positions count the residues as written; N and C are the ends. Ends that are not written are not given here. COCH2 = acetyl group that carries the bridge
PROPERTY_NAME: Evaluation result of binding affinity to FGFR

Notebook: 79 (NCPQNFINPVQWRYFQHYK(COCH2)N; thioether 2-19 (inferred)) [compound 79] , Evaluation result of binding affinity to FGFR read as A (0.7 or more)

Notebook: 314 (YCEENYLDPEQYQYFIYFK(COCH2)N; thioether 2-19 (inferred)) [compound 314] , Evaluation result of binding affinity to FGFR read as A (0.7 or more)
